In this section we review reported minimum concentration of VHH able to recognize 100 ng of VLP values for a set of binders.
# SYSTEM: T1, Hu/NoV/GI.1/P7-587/2007/Stromstad/Sweden VLP (human norovirus GI.1)
# T1 construct: mature; baculovirus VLP; VP2 may be present; also called Norovirus 2007
# ASSAY_PROTOCOL: VLP ELISA

// solved cases for minimum concentration of VHH able to recognize 100 ng of VLP follow
VHH 11.2 (VHH, llama VHH, Norwalk library; pHEN6, C-terminal His6 tag; also called VHH 11.1) VHH: DVQLQASGGGLVQAGGSLRLSCAASTSRFSSYAMGWSRQAPGKQRELVASISSSGLTTNYADSVKGRFTISRDNAKNTVYLQMNSLKPEDTAVYYCKADGRRYSLNEYWGQGTQVTVSS: 1 ng/well
VHH 12.2 (VHH, llama VHH, Norwalk library; pHEN6, C-terminal His6 tag) VHH: DVQLQASGGGLVQAGGSLRLSCAASGSTISSYAMAWYRQAPGKRRELVAHISSGGSTNYADSVKGRFTISRDNAKNTVYLQMNSLKPEDTAVYYCNIYYGGDYYYTGVKPNPWGQGTQVTVSS: 1 ng/well
VHH 6.3 (VHH, llama VHH, Norwalk (GI.1) library; also called clone 6.3) VHH: QVQLQQSGGGLVQPGGSLRLSCAASGSIFSIHTMGWYRQAPGKQRELVTTITTGGTTNYADSVKGRFTISRDDAKNTVYLQMNNLKPEDTAVYYCYALIQTASTTWYRQYWGQGTQVTVSS: 0.5 ng/well
VHH 14.5 (VHH, llama VHH, Norwalk library; pHEN6, C-terminal His6 tag) VHH: DVQLQASGGGLVQAGGSLRLSCVASARTFSSYAMGWFRQAPGKEREFVAAISWSGASTDYADSVKGRFTISRDNAKKTVYLQMNTLKPEDTAVYYCAAHHITPTGSYYYSEPLPVDMVYDYWGQGTQVTVSS: 0.5 ng/well
VHH 8.1 (VHH, llama VHH, Norwalk library; pHEN6, C-terminal His6 tag) VHH: QVKLQESGGGLVQAGGSLRLSCAASGFTFATYAMAWYRQAPGKQRELVASISNFGSTAYGDSVKGRFTISRDNAKNTVYLEMNSLKSEDTAVYYCKRVRDVIGRPELWGQGTQVTVSS: 1 ng/well

Consider the additional binder presented here.
Exercise: Give a short answer stating reported minimum concentration of VHH able to recognize 100 ng of VLP for VHH 7.3 (VHH, llama VHH, Norwalk library; pHEN6, C-terminal His6 tag; also called clone 7.3) VHH: QVKLQESGGGLVQPGGSLRLSCTASRSIFTRAMAWYRQAPGKQRELVAAIDSGDRTHYADSVKGRFTISRNNAKDTLYLQMNSLKSEDTAVYYCNANLGALLDYWGQGTQVTVSS .
Solution: 0.5 ng/well

Measured values drawn from patent US20200283507A1 for this set.
